Measured melting point values are reported for all entries that follow.
Where a name gives a salt, the structure may show the parent alone.
QUANTITY_NAME: melting point (°C)

INSERT INTO assay_data (molecule, scale_unit, inequality_operator, result_value) VALUES
  ('Cc1c(C#N)nc([C@]2(OCC3CC3)CC[C@](C(=O)O)(c3ccc(F)cc3)CC2)n1CC1CC1', '°C', '=', 245),
  ('O=C(O)[C@]1(c2ccc(F)cc2)CC[C@](Oc2ccccc2)(c2ccc(F)cn2)CC1', '°C', '=', 237),
  ('Cc1nc([C@]2(OCC3CC3)CC[C@](C(=O)O)(c3ccccc3)CC2)n(CC2CC2)c1-c1ccc(F)cc1', '°C', '=', 199),
  ('Cc1c(Cl)nc([C@]2(OCC3CC3)CC[C@](C(=O)O)(c3ccc(F)cc3)CC2)n1CC1CC1', '°C', '=', 185),
  ('CS(=O)(=O)c1cccc(-c2nc([C@]3(Oc4ccccc4)CC[C@@](C(=O)O)(c4ccccc4)CC3)n(CC3CC3)n2)c1', '°C', '=', 198),
  ('O=C(O)[C@]1(c2ccc(F)cc2)CC[C@@](OCC2CC2)(c2cn(CC3CC3)c(-c3ccccc3)n2)CC1', '°C', '=', 198),
  ('O=C(O)[C@]1(c2ccc(F)cc2)CC[C@](OCC2CC2)(c2cn(CC3CC3)c(-c3ccccc3)n2)CC1', '°C', '=', 209),
  ('Cc1nc([C@]2(OCC3CC3)CC[C@](C(=O)O)(c3ccc(F)cc3)CC2)n(CC2CC2)c1Cl', '°C', '=', 184),
  ('Cc1nc([C@]2(OCC3CC3)CC[C@](C(=O)O)(c3ccccc3)CC2)n(CC2CC2)c1S(C)(=O)=O (as salt: sulfonic acid salt)', '°C', '=', 206),
  ('Cc1nc([C@]2(OCC3CC3)CC[C@](C(=O)O)(c3ccccc3)CC2)n(CC2CC2)c1C#N', '°C', '=', 228),
  ('O=C(O)[C@]1(c2ccc(F)cc2)CC[C@](Oc2ccccn2)(c2ccc(F)cn2)CC1', '°C', '>', 300);
